Provide the reported GI50 of each item.
# Tested on: MDA-MB-435
# assay method text: NCI tumour cell line growth inhibition, 48 h
Activity calls are given as the source filed them. Cut-off read from the data, not from the text of the source: active = GI50 up to about 1.1 µM and inactive = higher.

Item O=C(O)CCc1ccc(-c2ccccc2)[nH]1 has what recorded GI50?
> 100 µM (inactive)

Which measured GI50 value corresponds to CCCCCCCCCCCCCCCCCCNc1nc(=O)n(C2CC(O)C(COP(=O)(O)O)O2)cc1F (stereo not given) ?
> 100 µM (inactive)

Which GI50 is reported for this molecule? CC(=O)N1CCN(C23OC4(N5CCN(C(C)=O)CC5)C5C6CC(C7C6C4C72)C53)CC1 (stereo not given)
> 100 µM (inactive)

// returns reported GI50 for input COC(=O)C1=C(C)NC(=O)N2[C@@H](CCOCc3ccccc3)CC[C@@H]12
> 50 µM (inactive)

Entry under review: O=CNc1ccc2c(c1)C(=O)c1ccccc1-2 . Reported GI50?
> 100 µM (inactive)

---

# System: HCC 2998
# assay method text: NCI tumour cell line growth inhibition, 48 h
The source made the active and inactive calls. Rule as the data show it: active = GI50 up to about 1.1 µM and inactive = higher.
# valid calls are Y for active, N for inactive; nothing else

Hi, do you know how C[C@@H](NC1CCC[C@H]1O)c1ccccc1 (some centres not stated) came out in this test?
N

Please let me know the test result on file for Clc1ccc(-c2nn3c(COc4ccc(OCc5nnc6sc(-c7ccc(Cl)cc7)nn56)c(Cl)c4)nnc3s2)cc1 .
N

// outcome(item) with item = COc1c2c(cc3oc(C)cc(=O)c13)OC(=N)C(C(N)=O)C2CC(=O)c1ccc(N)cc1 (configuration not stated)
N

Would you mind telling me which call this test gave [N-]=[N+]=CC(=O)C1(C(=O)C=[N+]=[N-])CC1 ?
N

Please share the test call associated with O=C1c2ccccc2-c2nc(-c3ccncc3)cc3c2c1nc1ccccc13 .
N

Hey, what did the test say about CC(=O)O[C@H]1C(=O)[C@@]2(C)[C@H]([C@H](OC(=O)c3ccc([N+](=O)[O-])cc3)[C@]3(O)C[C@H](OC(=O)[C@H](O)[C@@H](NC(=O)c4ccccc4)c4ccccc4)C(C)=C1C3(C)C)[C@]1(OC(C)=O)CO[C@@H]1C[C@@H]2O ?
N

Hi, sorry to bother you, what did the test record for CCOC(=O)CCC(NC(=O)OCc1ccccc1)C(=O)NC(CCC(=O)OCC)C(=O)NC(CCC(=O)OCC)C(=O)NC(CCC(=O)OCC)C(=O)NC(CCC(=O)OCC)C(=O)NC(CCC(=O)OCC)C(=O)NC(CCC(=O)OCC)C(=O)OCC (configuration not stated) ?
N

Could you check what this test reported for CN1CCC2(CC1)C(=O)N(N1CCCCCC1)C(=O)N2c1ccccc1 ?
N

Record lookup: outcome of this test for COc1cccc(-c2cc(C(=O)Nc3ccc(Cl)cc3)nc(N)n2)c1 ?
N

Can you look up the reported call for O=c1[nH]nc(Cc2ccccc2)n1/N=C/c1ccccc1Cl for me?
N

What did the test return for Cc1c(S(=O)(=O)N/C(=N\O)Nc2ccc(Cl)c(Cl)c2)sc2ccc(Cl)cc12 ?
N

Outcome logged for CCCCOC(=O)NC(c1ccccc1)C(O)C(=O)OC1C[C@@]2(O)C(OC(=O)c3ccccc3)C3[C@](C)(C(=O)[C@H](OC(C)=O)C(=C1C)C2(C)C)[C@@H](O)C[C@H]1OC[C@@]31OC(C)=O (some centres not stated) in this assay:
Y

Any idea what this test logged for COc1c(C)c(OC)c(C(=O)CC(C)C)c(OC)c1C ?
N

What classification did COc1cc2c(NCCN(C)C)nc3c4cc5c(cc4ccc3c2cc1OC)OCO5 end up with in this test?
N

Returns: the outcome recorded for CS(=O)(=O)Nc1ccc(Nc2ccnc3ccc4[nH]ccc4c23)cc1 in this assay.
N

// param item: CCOC(=O)c1sc2nc(SC)nc3c2c1NCN3C1CC1 ; yields the recorded call
N

Field: outcome | Entry: Cn1cc(S(=O)(=O)NC(=O)Nc2ccc(Cl)cc2)c(=O)c2ccc(Cl)cc21
N
